Assay context: in ethanol, 313.15 K
Observation type: solubility (mole fraction)

[in] Request the reported solubility (mole fraction) associated with `C[C@H]1[C@H](C)CC[C@]2(C(=O)O[C@@H]3O[C@H](CO[C@@H]4O[C@H](CO)[C@@H](O[C@@H]5O[C@@H](C)[C@H](O)[C@@H](O)[C@H]5O)[C@H](O)[C@H]4O)[C@@H](O)[C@H](O)[C@H]3O)CC[C@]3(C)C(=CC[C@@H]4[C@@]5(C)C[C@@H](O)[C@H](O)[C@@](C)(CO)[C@@H]5CC[C@]43C)[C@H]12`
[out] 0.000152

---

Assay context: in n-butanol, 303.15 K
Observation type: solubility (mole fraction)
The answer should be a number; do not append a unit.

[in] Request the reported solubility (mole fraction) associated with `C[C@H]1[C@H](C)CC[C@]2(C(=O)O[C@@H]3O[C@H](CO[C@@H]4O[C@H](CO)[C@@H](O[C@@H]5O[C@@H](C)[C@H](O)[C@@H](O)[C@H]5O)[C@H](O)[C@H]4O)[C@@H](O)[C@H](O)[C@H]3O)CC[C@]3(C)C(=CC[C@@H]4[C@@]5(C)C[C@@H](O)[C@H](O)[C@@](C)(CO)[C@@H]5CC[C@]43C)[C@H]12`
[out] 2.93e-05

---

Assay context: in ethanol, 318.15 K
Observation type: solubility (mole fraction)
The answer should be a number; do not append a unit.

[in] Request the reported solubility (mole fraction) associated with `C[C@H]1[C@H](C)CC[C@]2(C(=O)O[C@@H]3O[C@H](CO[C@@H]4O[C@H](CO)[C@@H](O[C@@H]5O[C@@H](C)[C@H](O)[C@@H](O)[C@H]5O)[C@H](O)[C@H]4O)[C@@H](O)[C@H](O)[C@H]3O)CC[C@]3(C)C(=CC[C@@H]4[C@@]5(C)C[C@@H](O)[C@H](O)[C@@](C)(CO)[C@@H]5CC[C@]43C)[C@H]12`
[out] 0.000165

---

Assay context: in n-propanol, 328.15 K
Observation type: solubility (mole fraction)
The answer should be a number; do not append a unit.

[in] Request the reported solubility (mole fraction) associated with `C[C@H]1[C@H](C)CC[C@]2(C(=O)O[C@@H]3O[C@H](CO[C@@H]4O[C@H](CO)[C@@H](O[C@@H]5O[C@@H](C)[C@H](O)[C@@H](O)[C@H]5O)[C@H](O)[C@H]4O)[C@@H](O)[C@H](O)[C@H]3O)CC[C@]3(C)C(=CC[C@@H]4[C@@]5(C)C[C@@H](O)[C@H](O)[C@@](C)(CO)[C@@H]5CC[C@]43C)[C@H]12`
[out] 0.000144

---

Assay context: in methanol, 308.15 K
Observation type: solubility (mole fraction)

[in] Request the reported solubility (mole fraction) associated with `C[C@H]1[C@H](C)CC[C@]2(C(=O)O[C@@H]3O[C@H](CO[C@@H]4O[C@H](CO)[C@@H](O[C@@H]5O[C@@H](C)[C@H](O)[C@@H](O)[C@H]5O)[C@H](O)[C@H]4O)[C@@H](O)[C@H](O)[C@H]3O)CC[C@]3(C)C(=CC[C@@H]4[C@@]5(C)C[C@@H](O)[C@H](O)[C@@](C)(CO)[C@@H]5CC[C@]43C)[C@H]12`
[out] 0.00139
